B1: CDC25B (parent)
chain: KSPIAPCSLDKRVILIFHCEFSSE

# Variants of: B1
# Measurement protocol: protein stability index of a GFP-peptide fusion (GPS, HEK-293T) (PSI 1-6); higher = more stable;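 further: lentivirally expressed fusions sorted by FACS into six bins by GFP to DsRed ratio, PSI derived from sequencing read proportions per bin multiplied by bin number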
# Condition description: c terminus: a fixed tail appended
Provide the reported protein stability index of each item.
Give bare numbers.

Example variants with recorded protein stability index:
# Alteration, protein stability index
records = [
    ("F21M", 3.21),
    ("V13D", 2.51),
    ("I4W", 2.72),
    ("C19E", 1.85),
    ("V13H", 1.85),
]

# return protein stability index for each item in the list
1. C7H
2. L15D
3. K11H

OUT:
[3.31, 2.38, 2.1]

For each of the variants below, note its protein stability index.
1. R12I
2. C19H
3. S23C
4. F21R
5. C7S
6. P6H
7. D10W

OUT:
1: 3.03; 2: 1.89; 3: 1.23; 4: 2.15; 5: 2.13; 6: 2.23; 7: 2.94

Give one value of protein stability index per listed variant.
1. F17G
2. L15G
3. P6C
4. L9P
5. S23E
6. C7G
7. K11V

OUT:
1. 1.39
2. 1.39
3. 2.97
4. 3.63
5. 1.73
6. 2.4
7. 4.34

Sourced from the supplement of paper PMC10567573
